Assay: Half life at normal dose was determined
Format: ADME
# key: entry, value: half-life
Entry rule: numbers only, all in min.

// below: answered compounds
Prompt line: Consider the compound shown here: `CC(C)(C)c1ccc(-n2c(C(=O)O)c(Oc3cccc(C(F)(F)F)c3)c3cc(Oc4cc(C(F)(F)F)ccn4)ccc32)cc1` What is its recorded half-life?
Response line: 48

Prompt line: Further, for `CC(C)(C)c1ccc(-n2c(C(=O)O)c(Oc3cccc(C(F)(F)F)c3)c3ccccc32)cc1` ?
Response line: 30

Next up:
Prompt line: # lookup: half-life of `CC(C)(C)c1ccc(-n2c(C(=O)O)c(Oc3cccc(C(F)(F)F)c3)c3cc(Oc4cc(Cl)c[nH]4)ccc32)cc1`
Response line: 108

----------
Target: Peroxisome proliferator-activated receptor alpha (Homo sapiens, UniProt Q07869)
Sequence (Q07869 whole entry): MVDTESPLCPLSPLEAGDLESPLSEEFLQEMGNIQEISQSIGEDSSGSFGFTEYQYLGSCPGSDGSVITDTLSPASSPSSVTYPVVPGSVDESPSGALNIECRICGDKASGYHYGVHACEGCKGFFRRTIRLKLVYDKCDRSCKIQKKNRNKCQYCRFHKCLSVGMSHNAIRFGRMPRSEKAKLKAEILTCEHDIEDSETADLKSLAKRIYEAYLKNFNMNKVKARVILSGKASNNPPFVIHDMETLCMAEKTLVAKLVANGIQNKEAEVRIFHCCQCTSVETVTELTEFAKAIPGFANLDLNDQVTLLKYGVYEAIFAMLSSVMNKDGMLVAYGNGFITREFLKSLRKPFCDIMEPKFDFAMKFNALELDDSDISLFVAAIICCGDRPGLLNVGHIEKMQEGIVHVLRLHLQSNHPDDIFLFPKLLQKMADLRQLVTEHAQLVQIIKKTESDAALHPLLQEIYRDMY
Experiment: Inhibitory concentration against human peroxisome proliferator activated receptor alpha in SPA assay
Documented IC50 across a set of compounds

Example cases with answers are listed next.
Prompt line: What value of IC50 has been recorded for this entry: `O=C(O)c1c(Sc2ccccc2)c2cc(Cl)ccc2n1Cc1ccc(Cl)cc1`
Response line: > 15 µM

Prompt line: Can you handle `CC(C)(C)c1ccc(-n2c(C(=O)O)c(Oc3cccc(C(F)(F)F)c3)c3cc(O)ccc32)cc1` next?
Response line: > 50 µM

Prompt line: Also, `CC(C)(C)c1ccc(-n2c(C(=O)O)c(Oc3cccc(C(F)(F)F)c3)c3ccc(Cl)nc32)cc1` please.
Response line: > 15 µM

Prompt line: Queued: `CC(C)(C)c1ccc(-n2c(C(=O)O)c(Oc3cccc(O)c3)c3ccccc32)cc1`
Response line: > 50 µM

Prompt line: Here is the next compound: `CC(C)(C)c1ccc(-n2c(C(=O)O)c(Oc3cccc(S(C)(=O)=O)c3)c3ccc(Cl)nc32)cc1`
Response line: > 50 µM

Prompt line: And then `CC(C)(C)c1ccc(-n2c(C(=O)O)c(Oc3ccc(Cl)c(C(F)(F)F)c3)c3cc(Cl)ccc32)cc1` , what is it?
Response line: 4.48 µM

Prompt line: Now consider `CC(C)(C)c1ccc(-n2c(C(=O)O)c(Oc3ccc(OC(F)(F)F)cc3)c3ccccc32)cc1` .
Response line: 3.58 µM

Prompt line: Follow-up entry: `CC(C)c1cccc(-n2c(C(=O)O)c(Oc3cccc(O)c3)c3ccccc32)c1`
Response line: > 50 µM

***
Prompt line: Look up IC50 for this compound: `CC(C)c1cccc(-n2c(C(=O)O)c(Oc3cccc(C(F)(F)F)c3)c3ccccc32)c1`
Response line: > 15 µM

----------
Recorded EC50 for the following molecules
Target: Peroxisome proliferator-activated receptor gamma (Homo sapiens, UniProt P37231)
Sequence (P37231 whole entry, the tested form may be a part): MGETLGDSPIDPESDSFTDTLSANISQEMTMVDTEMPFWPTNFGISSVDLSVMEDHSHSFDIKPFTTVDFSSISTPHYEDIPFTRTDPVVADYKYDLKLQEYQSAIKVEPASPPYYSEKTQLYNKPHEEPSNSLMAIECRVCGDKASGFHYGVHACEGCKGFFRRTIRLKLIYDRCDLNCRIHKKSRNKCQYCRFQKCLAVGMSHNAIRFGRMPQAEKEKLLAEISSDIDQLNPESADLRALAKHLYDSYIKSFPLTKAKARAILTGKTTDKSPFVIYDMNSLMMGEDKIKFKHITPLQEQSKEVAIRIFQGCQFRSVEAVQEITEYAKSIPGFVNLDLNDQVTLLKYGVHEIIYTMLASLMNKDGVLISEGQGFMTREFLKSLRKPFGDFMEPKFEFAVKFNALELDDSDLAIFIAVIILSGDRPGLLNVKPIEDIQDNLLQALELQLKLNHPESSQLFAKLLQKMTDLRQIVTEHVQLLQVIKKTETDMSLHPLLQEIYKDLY
Assay: Effective agonist concentration for human PPAR gamma Gal4 construct in transactivation assay
Please reply with the bare figure in µM and do not write the unit itself.

Use these answered entries as a reference point.
Prompt line: I'm curious: which EC50 was measured for `CC(C)(C)c1ccc(-n2c(C(=O)O)c(Oc3ccc(Cl)cc3)c3ccc(OC(F)(F)F)cc32)cc1` tested on Peroxisome proliferator-activated receptor gamma (Homo sapiens, UniProt P37231)?
Response line: 0.411

Prompt line: Next molecule: `CC(C)(C)c1ccc(-n2c(C(=O)O)c(Oc3cccc(C(F)(F)F)c3)c3cc(Oc4ccccn4)ccc32)cc1`
Response line: 0.126

Prompt line: And the next one, `CC(C)(C)c1ccc(-n2c(C(=O)O)c(Oc3cccc(C(F)(F)F)c3)c3cc(Oc4cc(Cl)c[nH]4)ccc32)cc1` ?
Response line: 0.002

Prompt line: Next: `COc1ccc2c(Oc3cccc(C(F)(F)F)c3)c(C(=O)O)n(-c3ccc(C(C)(C)C)cc3)c2n1`
Response line: 0.299

Prompt line: Entry `CC(C)(C)c1ccc(-n2c(C(=O)O)c(Oc3cccc(C(F)(F)F)c3)c3ccccc32)cc1` please
Response line: 0.013

Prompt line: Repeat with `CC(C)(C)c1ccc(-n2c(C(=O)O)c(Oc3cccc(C(F)(F)F)c3)c3ccc(Cl)cc32)cc1`
Response line: 0.106

Prompt line: Okay, and `CCOc1cccc(Oc2c(C(=O)O)n(-c3ccc(C(C)(C)C)cc3)c3ccccc23)c1` ?
Response line: 0.233

Now let's try a different one.
Prompt line: # query: EC50 | item `CC(C)(C)c1ccc(-n2c(C(=O)O)c(Oc3cccc(C(F)(F)F)c3)c3cc(Cl)ccc32)cc1` | system: Peroxisome proliferator-activated receptor gamma (Homo sapiens, UniProt P37231)
Response line: 0.136

----------
Parameter: IC50. Scope: all listed entries.
Target: Peroxisome proliferator-activated receptor alpha (Homo sapiens)
Sequence (Q07869 whole entry): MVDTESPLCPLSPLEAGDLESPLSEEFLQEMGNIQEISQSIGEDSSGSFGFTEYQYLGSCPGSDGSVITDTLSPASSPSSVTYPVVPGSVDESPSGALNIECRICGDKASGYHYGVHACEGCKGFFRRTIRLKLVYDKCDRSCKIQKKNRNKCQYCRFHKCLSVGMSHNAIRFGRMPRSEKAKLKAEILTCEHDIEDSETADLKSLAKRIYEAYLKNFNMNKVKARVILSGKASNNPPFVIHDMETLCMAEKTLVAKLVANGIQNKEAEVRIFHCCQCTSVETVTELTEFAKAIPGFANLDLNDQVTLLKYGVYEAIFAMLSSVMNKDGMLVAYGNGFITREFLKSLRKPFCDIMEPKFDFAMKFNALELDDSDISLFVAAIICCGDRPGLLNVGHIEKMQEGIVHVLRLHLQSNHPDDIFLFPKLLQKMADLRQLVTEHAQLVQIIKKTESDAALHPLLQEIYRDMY
Test: Inhibitory concentration against human peroxisome proliferator activated receptor alpha in SPA assay

Reference set, count: 5
Prompt line: I would be grateful if you could share the reported IC50 for `CC(C)(C)c1ccc(-n2c(C(=O)O)c(Oc3cccc(C(F)(F)F)c3)c3cc(Oc4cc(Cl)c[nH]4)ccc32)cc1` .
Response line: > 15 µM

Prompt line: Next molecule: `COc1ccc2c(Oc3cccc(C(F)(F)F)c3)c(C(=O)O)n(-c3ccc(C(C)(C)C)cc3)c2n1`
Response line: > 15 µM

Prompt line: Another molecule: `CC(C)c1cccc(-n2c(C(=O)O)c(Oc3ccc(C(F)(F)F)cc3)c3ccccc32)c1`
Response line: > 15 µM

Prompt line: Input `COc1cccc(Oc2c(C(=O)O)n(-c3ccc(C(C)(C)C)cc3)c3nc(Cl)ccc23)c1`
Response line: > 15 µM

Prompt line: Try `O=C(O)c1c(Oc2cccc(C(F)(F)F)c2)c2ccccc2n1-c1ccc(C(F)(F)F)cc1` next.
Response line: 3.2 µM

Now for a further molecule.
Prompt line: What value of measured IC50 is listed for `CCOc1cccc(Oc2c(C(=O)O)n(-c3ccc(C(C)(C)C)cc3)c3ccccc23)c1` ?
Response line: > 50 µM

----------
Measured IC50 of individual entries
Target: Peroxisome proliferator-activated receptor alpha (Homo sapiens)
Assay: Inhibitory concentration against human peroxisome proliferator activated receptor alpha in SPA assay

Completed entries (count: 5):
Prompt line: Can you look up the measured IC50 of `CC(C)(C)c1ccc(-n2c(C(=O)O)c(Oc3ccc(Cl)cc3)c3ccc(OC(F)(F)F)cc32)cc1` for me?
Response line: > 15 µM

Prompt line: Also check `CC(C)(C)c1ccc(-n2c(C(=O)O)c(Oc3cc(C(F)(F)F)cc(C(F)(F)F)c3)c3cc(Cl)ccc32)cc1`
Response line: > 15 µM

Prompt line: Again, but for `CC(C)(C)c1ccc(-n2c(C(=O)O)c(Oc3ccc(-c4cc(C(F)(F)F)c[nH]4)cc3)c3cccnc32)cc1`
Response line: > 50 µM

Prompt line: And then `CC(C)COc1ccc2c(c1)c(Oc1cccc(C(F)(F)F)c1)c(C(=O)O)n2-c1ccc(C(C)(C)C)cc1` , what is it?
Response line: 4.15 µM

Prompt line: Repeat with `CC(C)(C)c1ccc(-n2c(C(=O)O)c(Oc3cccc(C(F)(F)F)c3)c3cc(Cl)ccc32)cc1`
Response line: > 15 µM

Others:
Prompt line: Consider the molecule shown here: `CC(C)(C)c1ccc(-n2c(C(=O)O)c(Oc3cccc(C(F)(F)F)c3)c3cccnc32)cc1` What is its recorded IC50?
Response line: > 50 µM

Prompt line: What do you get for `CC(C)(C)c1ccc(-n2c(C(=O)O)c(Oc3cccc(-c4cc(C(F)(F)F)c[nH]4)c3)c3ccc(Cl)nc32)cc1` ?
Response line: > 50 µM

Prompt line: Thanks! And `CC(C)(C)c1ccc(-n2c(C(=O)O)c(Oc3cccc(C(F)(F)F)c3)c3ccc(Cl)cc32)cc1` ?
Response line: > 15 µM

Prompt line: Next entry: `CCOc1ccc2c(c1)c(Oc1cccc(C(F)(F)F)c1)c(C(=O)O)n2-c1ccc(C(C)(C)C)cc1`
Response line: 6.27 µM

Prompt line: And what about the molecule `COc1ccc2c(c1)c(Oc1cccc(C(F)(F)F)c1)c(C(=O)O)n2-c1ccc(C(C)(C)C)cc1` ?
Response line: > 15 µM

Prompt line: Request: `CC(C)c1cccc(Oc2c(C(=O)O)n(-c3ccc(C(C)(C)C)cc3)c3cc(Cl)ccc23)c1`
Response line: > 15 µM

Prompt line: Same lookup for `CC(C)(C)c1ccc(-n2c(C(=O)O)c(Oc3cccc(C(F)(F)F)c3)c3ccccc32)cc1` , please.
Response line: 10.6 µM

Prompt line: Same read-out for `COc1ccc(-n2c(C(=O)O)c(Oc3cccc(C(F)(F)F)c3)c3ccccc32)cc1` ?
Response line: > 50 µM

Just for reference, ChEMBL document CHEMBL1143644 is where these values come from.
